- Test system: LOX IMVI
- assay: NCI60 one-dose screen
- Assay type: cell-based
- conditionLabel: Homo sapiens, 10 μM, one-dose, read-out: Growth percent
Reported activity at 10 µM values for a set of molecules

molecule: CC[C@]12C=CCN3CC[C@@]4(c5ccc(OC)cc5N(C)[C@H]4[C@@](O)(C(=O)OC)[C@@H]1OC(=O)CCC[P+](c1ccc(OC)cc1)(c1ccc(OC)cc1)c1ccc(OC)cc1)[C@@H]32
endpointUnit: %
activity at 10 µM: -96.4
--
molecule: CCC12C=CCN3CCC4(c5ccc(OC)cc5N(C)C4C(O)(C(=O)OC)C1OC(=O)c1ccc(C[P+](c4ccccc4)(c4ccccc4)c4ccccc4)cc1)C32 (centres unmarked)
endpointUnit: %
activity at 10 µM: -39.8
--
molecule: CC[C@]12C=CCN3CC[C@@]4(c5ccc(OC)cc5N(C)[C@H]4[C@@](O)(C(=O)OC)[C@@H]1OC(=O)CCC[P+](c1ccccc1)(c1ccccc1)c1ccccc1)[C@@H]32 [compound 3, reference compound]
endpointUnit: %
activity at 10 µM: 8.81
--
molecule: CC[C@]12C=CCN3CC[C@@]4(c5ccc(OC)cc5N(C)[C@H]4[C@@](O)(C(=O)OC)[C@@H]1OC(=O)CCC[P+](c1cc(C)c(OC)c(C)c1)(c1cc(C)c(OC)c(C)c1)c1cc(C)c(OC)c(C)c1)[C@@H]32
endpointUnit: %
activity at 10 µM: -96.8
--
molecule: CC[C@]12C=CCN3CC[C@@]4(c5ccc(OC)cc5N(C)[C@H]4[C@@](O)(C(=O)OC)[C@@H]1OC(=O)CCCC[P+](c1ccc(F)cc1)(c1ccc(F)cc1)c1ccc(F)cc1)[C@@H]32 [10c]
endpointUnit: %
activity at 10 µM: 25

Sourced from paper PMC12028158
